- targetOfAssay: T1, human CLDN9 (human, UniProt O95484 1-217)
- T1 construct: NP_066192; It was expressed on 293T cells transiently transfected with human CLDN9/pCMV6-Entry (OriGene); also called claudin-9
- T1 sequence: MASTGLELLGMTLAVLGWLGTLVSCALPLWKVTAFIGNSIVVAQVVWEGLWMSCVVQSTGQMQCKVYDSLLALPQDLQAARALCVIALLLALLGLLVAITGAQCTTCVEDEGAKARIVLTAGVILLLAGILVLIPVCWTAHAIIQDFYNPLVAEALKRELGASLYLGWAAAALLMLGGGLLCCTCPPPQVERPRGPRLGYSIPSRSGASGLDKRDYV
- assayOverview: flow cytometry (MFI) on transiently transfected 293T cells
readoutType: binding result

binder | readoutType | reportedResult
humanized anti-CLDN6 antibody H1L3 (antibody, human IgG1, kappa, L234A L235A, V domains shown, hH1 + hL3, with human IgG1 LALA constant region and human kappa chain; also called H1L3 antibody) VH: QVQLVQSGAEVKKPGASVKVSCKASGYTFTEYTMHWVRQAPGQGLEWMGGVNPNSGDTSYAQKFQGRVTITADTSTSTAYMELSSLRSEDTAVYYCARPGGYDVGYYAMDYWGQGTLVTVSS VL: DIQMTQSPSSLSASVGDRVTITCRASQDINNYLNWYQQKPGGAVKLLIYFTSRLHSGVPSRFSGSGSGTDYTLTISSLQPEDFATYYCQQGYPLPWTFGGGTKVEIKR | binding result | binds
humanized anti-CLDN6 antibody H3L3 (antibody, human IgG1, kappa, L234A L235A, V domains shown, hH3 + hL3, with human IgG1 LALA constant region and human kappa chain; also called H3L3 antibody) VH: EVQLVQSGAEVKKPGASVKVSCKTSGYTFTEYTMHWVRQAPGQGLEWMGGVNPNSGDTSYAQKFQGRVTLTVDKSTSTAYMELSSLRSEDTAVYYCARPGGYDVGYYAMDYWGQGTLVTVSS VL: DIQMTQSPSSLSASVGDRVTITCRASQDINNYLNWYQQKPGGAVKLLIYFTSRLHSGVPSRFSGSGSGTDYTLTISSLQPEDFATYYCQQGYPLPWTFGGGTKVEIKR | binding result | binds
humanized anti-CLDN6 antibody H2L4 (antibody, human IgG1, kappa, L234A L235A, V domains shown, also called H2L4 antibody) VH: EVQLVQSGAEVKKPGASVKVSCKTSGYTFTEYTMHWVRQAPGKSLEWMGGVNPNSGDTSYAQKFQGRVTITADTSTSTAYMELSSLRSEDTAVYYCARPGGYDVGYYAMDYWGQGTLVTVSS VL: DIQMTQSPSSLSASVGDRVTITCRASQDINNYLNWYQQKPGGAVKLLIYFTSRLHSGVPSRFSGSGSGTDYTLTISSLQPEDFATYYCQQGNTLPWTFGGGTKVEIKR | binding result | binds
humanized anti-CLDN6 antibody H1L1 (antibody, human IgG1, kappa, L234A L235A, V domains shown, hH1 + hL1, with human IgG1 LALA constant region and human kappa chain; also called H1L1 antibody) VH: QVQLVQSGAEVKKPGASVKVSCKASGYTFTEYTMHWVRQAPGQGLEWMGGVNPNSGDTSYAQKFQGRVTITADTSTSTAYMELSSLRSEDTAVYYCARPGGYDVGYYAMDYWGQGTLVTVSS VL: DIQMTQSPSSLSASVGDRVTITCRASQDINNYLNWYQQKPGKAPKLLIYFTSRLHSGVPSRFSGSGSGTDYTLTISSLQPEDFATYYCQQGYPLPWTFGQGTKVEIKR | binding result | binds
humanized anti-CLDN6 antibody H2L2 (antibody, human IgG1, kappa, L234A L235A, V domains shown, hH2 + hL2, with human IgG1 LALA constant region and human kappa chain; also called H2L2 antibody) VH: EVQLVQSGAEVKKPGASVKVSCKTSGYTFTEYTMHWVRQAPGKSLEWMGGVNPNSGDTSYAQKFQGRVTITADTSTSTAYMELSSLRSEDTAVYYCARPGGYDVGYYAMDYWGQGTLVTVSS VL: DIQMTQSPSSLSASVGDRVTITCRASQDINNYLNWYQQKPGKAVKLLIYFTSRLHSGVPSRFSGSGSGTHYTLTISSLQPEDFATYYCQQGYPLPWTFGQGTKVEIKR | binding result | binds
